// values below are reported Aminopeptidase activity
Test system: Haemophilus aphrophilus
assay: Aminopeptidase activity on β-naphthylamide substrates
Format: biochemical
details: strain ATCC 13252; β-naphthylamine liberated after 60 minutes, 37° C.
Peptide text beside a SMILES is read from it. * marks the point of attachment. βNA = c1ccc2cc(N*)ccc2c1
Write the numeric value and follow it with the unit.

Example results:
N=C(N)NCCC[C@H](NC(=O)CN)C(=O)O [Gly-Arg, Glycyl-arginine] (H-Gly-Arg-OH) | 0 nmol
NC(=O)[C@@H](N)CCC(=O)O [α-Glu, α -glutamine] | 0 nmol
Cl.N=C(N)NCCC[C@H](NC(=O)CNC(=O)CNC(=O)OCc1ccccc1)C(=O)Nc1ccc2ccccc2c1 [N-CBz-Gly-Gly-Arg] | 1 nmol

Query (compound): C[C@H](N)C(=O)N[C@@H](C)C(=O)N[C@@H](Cc1ccccc1)C(=O)Nc1ccc2ccccc2c1 [Ala-Ala-Phe] (H-Ala-Ala-Phe-βNA) ; field requested: Aminopeptidase activity
0 nmol

====

Tested on: Eikenella corrodens
Assay type: biochemical
Peptide text beside a SMILES is read from it.
property_label: Aminopeptidase activity
The reply should be a number, written without any unit.

N=C(N)NCCC[C@H](NC(=O)[C@@H](N)CCCNC(=N)N)C(=O)O [Arg-Arg, Arginyl-arginine] (H-Arg-Arg-OH) | 0
N=C(N)NCCC[C@H](NC(=O)CN)C(=O)O [Gly-Arg, Glycyl-arginine] (H-Gly-Arg-OH) | 2
NCCCC[C@H](N)C(=O)N1CCC[C@H]1C(=O)O [Lys-Pro, Lysyl-proline] (H-Lys-Pro-OH) | 0
NCC(=O)N1CCC[C@H]1C(=O)O [Gly-Pro, Glycyl-proline] (H-Gly-Pro-OH) | 0

# Aminopeptidase activity lookup, item C[C@H](NC(=O)[C@@H](N)CCCCN)C(=O)O [Lys-Ala, Lysyl-alanine] (H-Lys-Ala-OH)
0

====

Aminopeptidase activity for assorted compounds
System: A. viscosus
Assay type: biochemical
details: strain ATCC 19246; β-naphthylamine liberated after 60 minutes, 37° C.
Peptide text beside a SMILES is read from it. * marks the point of attachment. βNA = c1ccc2cc(N*)ccc2c1
Form entry: value (nmol) — number only.

Illustrative cases are given below, each with its answer.
C[C@H](N)C(=O)N[C@@H](C)C(=O)N[C@@H](Cc1ccccc1)C(=O)Nc1ccc2ccccc2c1 [Ala-Ala-Phe] (H-Ala-Ala-Phe-βNA) | 2
Cl.N=C(N)NCCC[C@H](NC(=O)CNC(=O)CNC(=O)OCc1ccccc1)C(=O)Nc1ccc2ccccc2c1 | 0
CC(C)C[C@H](NC(=O)[C@@H]1CCCN1C(=O)CN)C(=O)Nc1ccc2ccccc2c1 [Gly-Pro-Leu] (H-Gly-Pro-Leu-βNA) | 0
CC(C)C[C@H](N)C(=O)NCC(=O)O [Leu-Gly, Leucyl-glycine] (H-Leu-Gly-OH) | 0

I have this compound here, NC(=O)[C@@H](N)CCC(=O)O , and I need its recorded Aminopeptidase activity.
0

# get_value(readout='Aminopeptidase activity', item= CSCCC(N)C(=O)Nc1ccc2ccccc2c1 (racemic) )
9

====

Test system: Actinobacillus actinomycetemcomitans
Assay type: biochemical
details: strain NCTC 9709; β-naphthylamine liberated after 60 minutes, 37° C.
Peptide text beside a SMILES is read from it. * marks the point of attachment. βNA = c1ccc2cc(N*)ccc2c1
property_label: Aminopeptidase activity (nmol)
State the answer as a number, implicitly in nmol.

Example entries and their recorded answers appear below.
NC(=O)[C@@H](N)CCC(=O)O | 0
CSCCC(N)C(=O)Nc1ccc2ccccc2c1 (racemic) | 0
C[C@H](N)C(=O)N[C@@H](C)C(=O)N[C@@H](Cc1ccccc1)C(=O)Nc1ccc2ccccc2c1 [Ala-Ala-Phe] (H-Ala-Ala-Phe-βNA) | 1
CC(C)C[C@H](N)C(=O)NCC(=O)O [Leu-Gly, Leucyl-glycine] (H-Leu-Gly-OH) | 0
Cl.N=C(N)NCCC[C@H](NC(=O)CNC(=O)CNC(=O)OCc1ccccc1)C(=O)Nc1ccc2ccccc2c1 | 1

Could you now look at the following compound, please?
Entry CC(C)C[C@H](NC(=O)[C@@H]1CCCN1C(=O)CN)C(=O)Nc1ccc2ccccc2c1 [Gly-Pro-Leu] (H-Gly-Pro-Leu-βNA) : reported Aminopeptidase activity = ?
0

====

Tested on: Veillonella sp.
Assay type: biochemical
Peptide text beside a SMILES is read from it.
Listed below: Aminopeptidase activity values for each entry.
Keep it simple and answer with nothing but the number.

N=C(N)NCCC[C@H](NC(=O)CN)C(=O)O [Gly-Arg, Glycyl-arginine] (H-Gly-Arg-OH) | 0
NCCCC[C@H](N)C(=O)N1CCC[C@H]1C(=O)O [Lys-Pro, Lysyl-proline] (H-Lys-Pro-OH) | 1
N=C(N)NCCC[C@H](NC(=O)[C@@H](N)CCCNC(=N)N)C(=O)O [Arg-Arg, Arginyl-arginine] (H-Arg-Arg-OH) | 0
NCC(=O)N1CCC[C@H]1C(=O)O [Gly-Pro, Glycyl-proline] (H-Gly-Pro-OH) | 0

Next up:
For the compound shown here, C[C@H](NC(=O)[C@@H](N)CCCCN)C(=O)O [Lys-Ala, Lysyl-alanine] (H-Lys-Ala-OH) , give the reported Aminopeptidase activity.
0

====

Tested on: Actinomyces israeli
Type: biochemical
details: strain ATCC 12103; β-naphthylamine liberated after 60 minutes, 37° C.
Peptide text beside a SMILES is read from it. * marks the point of attachment. βNA = c1ccc2cc(N*)ccc2c1
property_label: Aminopeptidase activity (nmol)
Write the answer as a number in nmol, unit excluded.

CSCCC(N)C(=O)Nc1ccc2ccccc2c1 (racemic) | 12
CC(C)C[C@H](NC(=O)[C@@H]1CCCN1C(=O)CN)C(=O)Nc1ccc2ccccc2c1 [Gly-Pro-Leu] (H-Gly-Pro-Leu-βNA) | 0
Cl.N=C(N)NCCC[C@H](NC(=O)CNC(=O)CNC(=O)OCc1ccccc1)C(=O)Nc1ccc2ccccc2c1 | 0
CC(C)C[C@H](N)C(=O)NCC(=O)O [Leu-Gly, Leucyl-glycine] (H-Leu-Gly-OH) | 0
C[C@H](N)C(=O)N[C@@H](C)C(=O)N[C@@H](Cc1ccccc1)C(=O)Nc1ccc2ccccc2c1 [Ala-Ala-Phe] (H-Ala-Ala-Phe-βNA) | 3

In the following, a different molecule is considered.
Can you look up the measured Aminopeptidase activity of NC(=O)[C@@H](N)CCC(=O)O for me?
0

====

Tested on: L. fermentum
assay: Aminopeptidase activity on β-naphthylamide substrates
Format: biochemical
details: strain ATCC 11581; β-naphthylamine liberated after 60 minutes, 37° C.
Peptide text beside a SMILES is read from it. * marks the point of attachment. βNA = c1ccc2cc(N*)ccc2c1
Listed here are molecules together with their documented Aminopeptidase activity.
Your answer should be a plain number; it is taken to be in nmol.

The examples below pair each entry with its known result.
NC(=O)[C@@H](N)CCC(=O)O | 0
Cl.N=C(N)NCCC[C@H](NC(=O)CNC(=O)CNC(=O)OCc1ccccc1)C(=O)Nc1ccc2ccccc2c1 | 0
C[C@H](N)C(=O)N[C@@H](C)C(=O)N[C@@H](Cc1ccccc1)C(=O)Nc1ccc2ccccc2c1 [Ala-Ala-Phe] (H-Ala-Ala-Phe-βNA) | 5
CC(C)C[C@H](N)C(=O)NCC(=O)O [Leu-Gly, Leucyl-glycine] (H-Leu-Gly-OH) | 2
CC(C)C[C@H](NC(=O)[C@@H]1CCCN1C(=O)CN)C(=O)Nc1ccc2ccccc2c1 [Gly-Pro-Leu] (H-Gly-Pro-Leu-βNA) | 0
N=C(N)NCCC[C@H](NC(=O)CN)C(=O)O [Gly-Arg, Glycyl-arginine] (H-Gly-Arg-OH) | 0
N=C(N)NCCC[C@H](NC(=O)[C@@H](N)CCCNC(=N)N)C(=O)O [Arg-Arg, Arginyl-arginine] (H-Arg-Arg-OH) | 0

Please find the next molecule below.
Would you mind telling me what Aminopeptidase activity value was observed for CSCCC(N)C(=O)Nc1ccc2ccccc2c1 (racemic) ?
6

====

Test system: Eikenella corrodens
Type: biochemical
details: strain BP1-6; β-naphthylamine liberated after 60 minutes, 37° C.
Peptide text beside a SMILES is read from it. * marks the point of attachment. βNA = c1ccc2cc(N*)ccc2c1
Listed next: entries and their corresponding Aminopeptidase activity.
Answer in nmol, number only, no unit symbol.

Previously resolved entries follow.
Cl.N=C(N)NCCC[C@H](NC(=O)CNC(=O)CNC(=O)OCc1ccccc1)C(=O)Nc1ccc2ccccc2c1 | 0
NC(=O)[C@@H](N)CCC(=O)O | 0
C[C@H](N)C(=O)N[C@@H](C)C(=O)N[C@@H](Cc1ccccc1)C(=O)Nc1ccc2ccccc2c1 [Ala-Ala-Phe] (H-Ala-Ala-Phe-βNA) | 0
CC(C)C[C@H](NC(=O)[C@@H]1CCCN1C(=O)CN)C(=O)Nc1ccc2ccccc2c1 [Gly-Pro-Leu] (H-Gly-Pro-Leu-βNA) | 0
CSCCC(N)C(=O)Nc1ccc2ccccc2c1 (racemic) | 3

Next compound, please.
For the record CC(C)C[C@H](N)C(=O)NCC(=O)O [Leu-Gly, Leucyl-glycine] (H-Leu-Gly-OH) , what value of Aminopeptidase activity is listed for Eikenella corrodens?
0

// data source = patent US4994376A
